Kindly supply the reported Short-term stability RE% values for the records listed here.
- assay-info: Stability of analytes in cell lysates (LC–MS/MS method validation)
- Assay type: physicochemical
- settings: 12 h at room temperature, low QC level, n=3
One number for each entry, in %.

Known Short-term stability RE% results, listed for orientation:
[[record]]
compound = "CC(=O)O[C@@H]1C[C@H](O)[C@@]23CO[C@@H](O)[C@]1(C)[C@@H]2C[C@@H](O)[C@]1(C)[C@@H]3C(=O)[C@H](OC(C)=O)[C@@]2(C)[C@H](c3ccoc3)C[C@H]3O[C@]321 [TSN, toosendanin]"
property_label = "Short-term stability RE%"
assay_result = 8.0

[[record]]
compound = "COc1cc2c(cc1OC)-c1c(C)c3ccc(OC)c(OC)c3c[n+]1CC2 [DHC, dehydrocorydaline]"
property_label = "Short-term stability RE%"
assay_result = -2.4


Could you now look at the following compound, please?
Which value of Short-term stability RE% has been reported for COc1cc2c(cc1OC)-c1cc3ccc(OC)c(OC)c3c[n+]1CC2 [PAL, palmatine] in the records?
6.5
